target: TGR4 (Homo sapiens, UniProt Q9H1C0); construct: expressed in transfected cells; assay: Intracellular calcium ion mobilization activity in TGR4-expressing CHO cells (FLIPR); type: cell-based; settings: TGR4-expressing CHO cells; 100% = reaction when 2 × 10^−6 M farnesyl 2-phosphate was added; read-out: Intracellular Ca^2+ mobilization activity (EC50)
Sequence (Q9H1C0 whole entry): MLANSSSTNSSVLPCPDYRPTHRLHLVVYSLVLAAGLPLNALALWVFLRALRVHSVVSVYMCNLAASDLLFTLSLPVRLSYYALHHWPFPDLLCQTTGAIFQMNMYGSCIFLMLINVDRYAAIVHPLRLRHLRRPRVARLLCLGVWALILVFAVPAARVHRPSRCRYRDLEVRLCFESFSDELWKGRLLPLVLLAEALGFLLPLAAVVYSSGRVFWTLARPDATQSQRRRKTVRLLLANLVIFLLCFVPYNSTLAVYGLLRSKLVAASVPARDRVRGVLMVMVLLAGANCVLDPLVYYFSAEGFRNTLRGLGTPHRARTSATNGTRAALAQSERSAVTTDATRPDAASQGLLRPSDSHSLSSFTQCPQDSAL
Quantity Name: EC50

Record excerpt, results attached:
- Molecule: "CC(C)=CCCC(C)=CCCC(C)=CCO"
  Result: "> 2.5 µM"
- Molecule: "CC(C)=CCC/C(C)=C/COP(=O)(O)OP(=O)(O)O [Geranyl 2-phosphate]"
  Result: "> 2.5 µM"
- Molecule: "CC(C)=CCC/C(C)=C/CCl [Geranylchloride]"
  Result: "> 2.5 µM"

In one line, give reported EC50 of the entry CC(C)=CCC/C(C)=C/CC/C(C)=C/CC/C(C)=C/COP(=O)(O)OP(=O)(O)O [Geranylgeranyl 2-phosphate, geranylgeranyl 2-phosphate] .
0.019 µM

Retrieve EC50 measured for CCCCCCCCCCCCC/C=C/[C@@H](O)[C@@H](N)COP(=O)(O)O [Sphingosine 1-phosphate] and print it.
1.5 µM

Consider the molecule CC(C)=CCOP(=O)(O)OP(=O)(O)O [Dimethylaryl 2-phosphate] . State its measured EC50.
> 2.5 µM

Quote EC50 reported for C[C@H](CCC(=O)O)[C@H]1CC[C@H]2[C@@H]3CC[C@@H]4C[C@H](O)CC[C@]4(C)[C@H]3CC[C@]12C please.
> 2.5 µM

Specify measured EC50 for CC(=O)CC/C=C(\C)CCC=C(C)C .
> 2.5 µM
